target system: PD-L1 His protein / PD-1 Fc protein (Homo sapiens (Human))
Sequence (Q9NZQ7 19-238): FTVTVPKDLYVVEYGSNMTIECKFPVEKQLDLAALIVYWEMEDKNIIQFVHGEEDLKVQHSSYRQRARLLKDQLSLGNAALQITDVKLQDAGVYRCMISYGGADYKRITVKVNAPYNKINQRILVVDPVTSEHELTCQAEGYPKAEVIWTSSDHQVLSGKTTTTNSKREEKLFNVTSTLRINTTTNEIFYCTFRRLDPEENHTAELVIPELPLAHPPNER
assay details: HTRF Assay (PD-1/PD-L1 interaction)
Format: binding
details: PD-L1 His 6 nM, PD-1 Fc 6 nM
pIC50: −log10 of the molar value.
recorded endpoint: pIC50

[[record]]
molecule = "COc1nc(-c2cccc(-c3ccnc(-c4cc5c(OC)nc(CN6CC(C)(O)C6)nn5c4)c3Cl)c2Cl)ccc1CNC[C@@H]1CCC(=O)N1"
recorded_endpoint = "pIC50"
measured_value = 8.20

[[record]]
molecule = "COc1cc(-c2nccc(-c3cccc(NC(=O)c4ccc(CN5CC6(C5)CN(C(C)=O)C6)cn4)c3Cl)c2Cl)ccc1CN1CC2(C1)CN(C(C)=O)C2"
recorded_endpoint = "pIC50"
measured_value = 10.40

[[record]]
molecule = "COc1cc(-c2nccc(-c3cccc(-c4ccc(CNC5CC6(CCNC6=O)C5)c(OC)n4)c3Cl)c2Cl)ccc1CNC1CC2(CCNC2=O)C1 (stereo not drawn)"
recorded_endpoint = "pIC50"
measured_value = 8.95

[[record]]
molecule = "COc1nc(-c2cccc(-c3ccnc(-c4ccc5c(CNCCO)cn(C)c5c4)c3Cl)c2Cl)ccc1CNC[C@@H]1CCC(=O)N1"
recorded_endpoint = "pIC50"
measured_value = 8.96

[[record]]
molecule = "CNCc1ccc(-c2cccc(-c3ccnc(-c4ccc(CNC[C@@H](O)CC(=O)O)c(OC)c4)c3Cl)c2Cl)nc1OC"
recorded_endpoint = "pIC50"
measured_value = 8.66

[[record]]
molecule = "COc1cc(-c2nccc(-c3cccc(-c4ccc(CNCCCNC(C)=O)c(OC)n4)c3Cl)c2Cl)ccc1CNCCCNC(C)=O"
recorded_endpoint = "pIC50"
measured_value = 9.92

